testSystem: T1, interleukin-23 receptor (IL-23R), Q5VWK5
T1 chain: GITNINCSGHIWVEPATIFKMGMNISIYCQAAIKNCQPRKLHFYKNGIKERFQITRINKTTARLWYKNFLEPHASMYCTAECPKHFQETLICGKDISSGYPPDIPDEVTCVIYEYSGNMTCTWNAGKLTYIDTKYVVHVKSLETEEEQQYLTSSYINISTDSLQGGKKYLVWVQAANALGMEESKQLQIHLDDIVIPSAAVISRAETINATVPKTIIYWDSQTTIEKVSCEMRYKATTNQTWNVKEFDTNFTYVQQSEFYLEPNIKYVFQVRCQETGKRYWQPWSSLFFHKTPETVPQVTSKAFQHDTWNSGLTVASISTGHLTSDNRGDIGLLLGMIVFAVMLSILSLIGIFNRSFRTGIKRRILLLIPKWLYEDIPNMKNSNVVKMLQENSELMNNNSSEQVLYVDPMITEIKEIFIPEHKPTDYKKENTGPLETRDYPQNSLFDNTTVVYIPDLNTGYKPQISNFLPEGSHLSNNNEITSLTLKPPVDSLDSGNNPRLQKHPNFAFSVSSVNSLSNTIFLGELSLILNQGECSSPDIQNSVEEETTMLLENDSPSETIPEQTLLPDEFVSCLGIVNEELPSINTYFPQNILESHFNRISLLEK
assayMethodText: cell-based or functional assay
Starred links: 1 amine or outer side, 2 acyl side, 3 side chain; linkers in the order of their positions; H or OH if unused. Positions of bridges follow the written chain, without caps; N, C: chain ends. Non-standard residues stand in square brackets, D forms with d. No end group written: not given here. *: point of attachment. X1 = 3‑(7-(3-acetamidophenyl)-1H-indol-3-yl)‑2‑aminopropanoic acid, CC(=O)Nc1cccc(-c2cccc3c(CC(N[*:1])C(=O)[*:2])c[nH]c23)c1; X3 = 4‑(2-(4-(2-amino-2-carboxyethyl)phenoxy)ethyl)‑4‑methylmorpholin‑4‑ium, C[N+]1(CCOc2ccc(CC(N[*:1])C(=O)[*:2])cc2)CCOCC1; Trp(7-(3-AcNH-Ph)) = CC(=O)Nc1cccc(-c2cccc3c(C[C@H](N)C(=O)O)c[nH]c23)c1; 2Nal(6-OH) = N[C@@H](Cc1ccc2cc(O)ccc2c1)C(=O)O; Trp(7-Me) = Cc1cccc2c(C[C@H](N)C(=O)O)c[nH]c12; AEF = NCCOc1ccc(C[C@H](N)C(=O)O)cc1; αMeF = C[C@](N)(Cc1ccccc1)C(=O)O; 3Pal = N[C@@H](Cc1cccnc1)C(=O)O; Pen = CC(C)(S)[C@H](N)C(=O)O; Thp = NC1(C(=O)O)CCOCC1; Abu = CC[C@H](N)C(=O)O; Propionyl = CCC(=O)*; Sar = CNCC(=O)O
quantity: PBMC pSTAT3 IC50

- binder: "R[Pen]ET[Trp(7-Me)]K[Pen][AEF][2Nal(6-OH)][Thp]EN[3Pal][Sar] (disulfide 2-7 (inferred); ends not checked; also: K6: lipidated lysine, lipid not given here) [SEQ ID NO: 140]"
  PBMC pSTAT3 IC50: "< 1 nM"
- binder: "R[Pen]NT[Trp(7-Me)]K(Ac)[Pen][AEF][2Nal(6-OH)][Thp]KN[3Pal][Sar] (not fully specified (residue 11, bridges); ends and bridges not checked; also: K11: lipidated lysine) [SEQ ID NO: 424]"
  PBMC pSTAT3 IC50: "< 1 nM"
- binder: "R[Pen]NT[Trp(7-Me)]K(Ac)[Pen][2‑amino‑3‑(4-(2-aminoethoxy)phenyl)propanoic acid][2‑amino‑3‑(5-carbamoylnaphthalen-2-yl)propanoic acid][Thp]EN[αMeF] (disulfide 2-7 (inferred); ends not checked) [SEQ ID NO: 439]"
  PBMC pSTAT3 IC50: "< 1 nM"
- binder: "[Pen]ET[Trp(7-Me)][N,N,N‑trimethylhomolysine][Pen][2‑amino‑3‑(4-(2-(methylamino)ethoxy)phenyl)propanoic acid][2‑amino‑3‑(6-hydroxynaphthalen-2-yl)propanoic acid][Thp]EN[3Pal][Sar] (not fully specified (bridges); ends and bridges not checked) [SEQ ID NO: 382]"
  PBMC pSTAT3 IC50: "< 10 pM"

Can you share its PBMC pSTAT3 IC50? I mean this binder: [dK](Propionyl)[Abu]NTWQC[AEF][2Nal(6-OH)][Thp]CN[3Pal][Sar] (ends and bridges not checked) [SEQ ID NO: 10]
< 10 pM

Which value of PBMC pSTAT3 IC50 has been reported for [Pen]NT[Trp(7-(3-AcNH-Ph))]K(Ac)[Pen][AEF][2Nal(6-OH)][Thp]EN[3Pal][Sar] (not fully specified (bridges); ends and bridges not checked) [SEQ ID NO: 69] in the records?
< 10 pM

Which measured PBMC pSTAT3 IC50 value corresponds to R[Pen]NT[X1]K(Ac)[Pen][X3][2‑amino‑3‑(6-hydroxynaphthalen-2-yl)propanoic acid][Thp]EN[3Pal][Sar] (disulfide 2-7 (inferred); ends not checked) [SEQ ID NO: 161] ?
< 10 pM

Each recorded value in this set is attributed to patent US20240279281A1.
